test system: Cryptococcus neoformans; details: Concentration 20 uM; ASSAY_TEST Inhibition of Fungal Growth; detection method Resazurin; Absorption (OD600-OD570); plate type 384well; NBS; CORNING #3640
Description: Antifungal activity against Cryptococcus neoformans H99 ATCC 208821 (CO-ADD:FG_002); MIC in YNB media using NBS plates, by Resazurin OD(600-570)
Measured potencies and affinities stand elsewhere.
measured_endpoint: Inhibition
Give the value; after it, write the unit.

Consider the worked cases shown below.
Data request: Any idea what its Inhibition is? The compound is `OCc1nnn(-c2ccccc2)c1CO`
Data returned: -6.38%

Data request: Any idea what its Inhibition is? The compound is `CC(C)(C)NC1=NCCNC(c2ccccc2)=C1.CS(=O)(=O)O`
Data returned: -14.32%

Data request: Any idea what its Inhibition is? The compound is `c1ccc(-n2c3ccccc3c3ccccc32)cc1`
Data returned: 11.23%

Next:
Data request: Any idea what its Inhibition is? The compound is `Cc1oc2c(c(C)nn2-c2ccccc2)c(=O)c1Cl`
Data returned: 35.87%

Data request: Any idea what its Inhibition is? The compound is `Nc1nc(Cl)cc(Nc2ccccc2Cl)n1`
Data returned: 1.11%

Data request: Any idea what its Inhibition is? The compound is `O=C(O)c1ccc(N2CCCCC2)cc1O`
Data returned: -11.23%

Data request: Any idea what its Inhibition is? The compound is `CCCCCc1cccnc1`
Data returned: -0.18%

Data request: Any idea what its Inhibition is? The compound is CC(=O)Oc1ccc(OC(C)=O)c2c1CC1(C)OC1(C)C2 (stereo unspecified)
Data returned: -11.66%

Data request: Any idea what its Inhibition is? The compound is `Cc1nc2nc(C(F)(F)F)[nH]c2nc1C`
Data returned: -5.2%

Data request: Any idea what its Inhibition is? The compound is `Cc1nnsc1C(=O)NCc1c(F)cccc1Cl`
Data returned: -9.18%

Data request: Any idea what its Inhibition is? The compound is `CC(C)Oc1ccc(C(=O)O)cc1`
Data returned: -0.99%
